EXPERIMENTAL_SYSTEM: Nucleotide-binding oligomerization domain-containing protein 1 (Homo sapiens)
Sequence (Q9Y239 whole entry, the tested form may be a part): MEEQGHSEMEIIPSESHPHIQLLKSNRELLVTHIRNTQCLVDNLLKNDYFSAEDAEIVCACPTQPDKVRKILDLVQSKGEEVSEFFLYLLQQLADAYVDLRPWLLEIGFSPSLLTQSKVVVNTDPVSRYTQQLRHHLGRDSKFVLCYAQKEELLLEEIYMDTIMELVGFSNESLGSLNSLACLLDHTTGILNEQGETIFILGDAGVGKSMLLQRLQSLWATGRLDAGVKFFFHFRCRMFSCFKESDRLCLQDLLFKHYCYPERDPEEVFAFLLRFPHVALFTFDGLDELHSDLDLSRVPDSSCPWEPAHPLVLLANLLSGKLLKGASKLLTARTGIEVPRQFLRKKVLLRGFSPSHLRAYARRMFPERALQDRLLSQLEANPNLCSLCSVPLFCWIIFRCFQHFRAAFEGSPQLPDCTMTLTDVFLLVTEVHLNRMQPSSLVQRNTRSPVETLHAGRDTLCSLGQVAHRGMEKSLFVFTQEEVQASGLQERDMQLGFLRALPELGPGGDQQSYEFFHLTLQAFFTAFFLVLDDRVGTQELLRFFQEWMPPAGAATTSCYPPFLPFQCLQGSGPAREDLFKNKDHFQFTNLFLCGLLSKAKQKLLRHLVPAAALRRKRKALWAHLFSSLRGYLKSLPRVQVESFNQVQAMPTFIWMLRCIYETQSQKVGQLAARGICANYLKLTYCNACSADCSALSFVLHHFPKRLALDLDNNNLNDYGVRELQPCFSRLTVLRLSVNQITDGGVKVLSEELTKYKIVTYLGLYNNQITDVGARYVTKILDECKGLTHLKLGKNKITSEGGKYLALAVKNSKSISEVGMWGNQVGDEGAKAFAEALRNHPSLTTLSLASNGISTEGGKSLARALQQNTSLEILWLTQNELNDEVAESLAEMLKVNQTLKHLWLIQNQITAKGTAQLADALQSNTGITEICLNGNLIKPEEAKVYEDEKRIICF
PROTOCOL_DESCRIPTION: inhibition of NOD1-driven NF-kB reporter – cell-based, luminescence, uHTS, primary screen (AID 1578)
REPORTED_PROPERTY: log10 of EC50 (log10 of the value in µM)
Note: values are log10 of EC50 expressed in µM.

// query Indicate the recorded log10 of EC50 value for this compound: "CCCCCCC1=Cc2c/c(=C3/NN/C(=C4/C=CC=CC4=O)O3)c(=O)oc2=CC1=O"
// result 0.65

// query Indicate the recorded log10 of EC50 value for this compound: COc1ccc(NS(=O)(=O)c2ccc(N=NC(C)c3ccncc3)c([N+](=O)[O-])c2)cc1 (stereo not given) [MLS000393523]
// result 0.64

// query Indicate the recorded log10 of EC50 value for this compound: O=C1C(=O)N(c2nccs2)C(c2ccccc2)C1C(=O)c1ccc2c(c1)OCCO2 (stereo not given)
// result 1.06

// query Indicate the recorded log10 of EC50 value for this compound: Cc1ccc(O)c(/N=C/C2=CC(Cc3ccccc3)C=C([N+](=O)[O-])C2=O)c1 (stereo not given)
// result 0.79

// query Indicate the recorded log10 of EC50 value for this compound: CCCOC1=CC(=O)C(C=NNC(=S)Nc2ccccc2[N+](=O)[O-])C=C1 (stereo not given)
// result 1.08

// query Indicate the recorded log10 of EC50 value for this compound: "CCCCCCC1=Cc2c/c(=C3/NN=C(c4ccccc4OC)O3)c(=O)oc2=CC1=O"
// result 0.82

// query Indicate the recorded log10 of EC50 value for this compound: Cc1cc(N=NCc2ccccc2[N+](=O)[O-])nc(-n2nc(C)cc2C)n1 [SMR000426946]
// result 0.79

// query Indicate the recorded log10 of EC50 value for this compound: "C=CCN1C(=O)C(=NNC(=S)Nc2cccc(C)c2)c2ccccc21"
// result 0.04

// query Indicate the recorded log10 of EC50 value for this compound: O=C1C([N+](=O)[O-])=CC(Cl)=CC1CN=Nc1ccccn1 (stereo not given) [MLS000539830]
// result 0.96

// query Indicate the recorded log10 of EC50 value for this compound: Cc1cc(CN=Nc2nc(N)ncc2[N+](=O)[O-])c(C)n1-c1ccccc1F [MLS000392273]
// result 0.67

// query Indicate the recorded log10 of EC50 value for this compound: CCOc1ccc(-c2csc(/C(C#N)=C/C3C=CC(=O)C([N+](=O)[O-])=C3)n2)cc1 (stereo not given) [SMR000237723]
// result 0.18

// query Indicate the recorded log10 of EC50 value for this compound: "COc1cc(CN=Nc2nc3c(c(=O)n(C)c(=O)n3C)n2Cc2ccccc2)ccc1OC(=O)c1ccco1"
// result 0.72

// query Indicate the recorded log10 of EC50 value for this compound: "Cc1cc(CN=Nc2ncnc(N)c2[N+](=O)[O-])c(C)n1-c1ccccc1"
// result 0.62

The reported numbers originate from BindingDB's records for doi:10.7270/Q2CN72C0.
